Molecular target: IRE1a (Homo sapiens, UniProt O75460)
Sequence (O75460 19-977): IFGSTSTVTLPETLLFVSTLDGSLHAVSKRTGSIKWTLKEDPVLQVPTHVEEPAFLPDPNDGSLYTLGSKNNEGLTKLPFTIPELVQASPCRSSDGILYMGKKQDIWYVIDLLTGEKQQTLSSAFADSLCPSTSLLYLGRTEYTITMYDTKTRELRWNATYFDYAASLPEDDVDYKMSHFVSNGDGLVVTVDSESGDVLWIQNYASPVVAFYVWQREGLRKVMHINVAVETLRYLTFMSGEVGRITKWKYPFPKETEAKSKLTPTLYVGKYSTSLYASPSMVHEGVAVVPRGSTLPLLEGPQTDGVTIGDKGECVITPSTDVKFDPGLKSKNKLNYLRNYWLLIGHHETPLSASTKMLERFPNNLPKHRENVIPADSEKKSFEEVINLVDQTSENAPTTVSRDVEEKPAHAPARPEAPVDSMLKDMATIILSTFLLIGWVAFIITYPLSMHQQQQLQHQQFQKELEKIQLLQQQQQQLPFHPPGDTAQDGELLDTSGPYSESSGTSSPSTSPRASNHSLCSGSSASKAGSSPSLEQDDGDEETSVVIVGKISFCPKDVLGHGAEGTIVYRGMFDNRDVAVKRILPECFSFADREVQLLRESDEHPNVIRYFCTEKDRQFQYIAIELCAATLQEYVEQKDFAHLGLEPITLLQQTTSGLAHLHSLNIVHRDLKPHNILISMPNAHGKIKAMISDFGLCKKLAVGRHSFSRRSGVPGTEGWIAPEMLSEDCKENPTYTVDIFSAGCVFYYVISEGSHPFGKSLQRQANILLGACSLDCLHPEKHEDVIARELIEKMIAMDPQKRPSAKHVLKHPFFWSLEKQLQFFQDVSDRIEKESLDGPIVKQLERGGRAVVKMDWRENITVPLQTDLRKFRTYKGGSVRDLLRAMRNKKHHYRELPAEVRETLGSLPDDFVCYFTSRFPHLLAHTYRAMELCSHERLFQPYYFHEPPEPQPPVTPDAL
Experiment: IRE1a Endoribonuclease Nanoluciferase Assay (XBP1 luciferase reporter in 293T cells)
Settings: 293T cells transfected with XBP1 luciferase reporter, ER stressors +/- inhibitors
Experimental: Compounds disclosed herein were assessed for disruption of IRE1 signaling using a IRE1a Endoribonuclease Nanoluciferase Assay. Briefly, 2.5×10^6 293T cells were seeded in a 10 cm^2 tissue culture plate. About 24 hours later, the cells were transfected with Effectene. […] Plates were read on luminometer, 1000 ms integration time per well. […] Plates were read on luminometer, 1000 ms second integration time per well. […]
recorded.metric: EC50

Task item: Lookup: EC50 / IRE1a (Homo sapiens, UniProt O75460) / CCc1cc(-c2ccc(NS(=O)(=O)c3ccccc3Cl)c(F)c2)cc2cnc(N[C@H]3CC[C@H](NC(=O)[C@@H](N)C(C)C)CC3)nc12
Reply: ≤ 5 nM

Task item: Short answer please: EC50, IRE1a (Homo sapiens, UniProt O75460), entry Cc1cc(NS(=O)(=O)c2ccccc2Cl)ncc1-c1ccc2nc(N[C@H]3CC[C@H](N)CC3)ncc2c1
Reply: > 100 nM

Task item: Look up EC50 with IRE1a (Homo sapiens, UniProt O75460) for this compound: CCc1cc(-c2ncc(NS(=O)(=O)c3ccccc3Cl)cc2F)cc2cnc(N[C@H]3CC[C@H](N)CC3)nc12.O=CO
Reply: ≤ 5 nM

Task item: For IRE1a (Homo sapiens, UniProt O75460), provide EC50 of CCc1cc(-c2ccc(NS(=O)(=O)c3ccccc3Cl)c(F)c2)cc2cnc(N[C@H]3CC[C@H](NC(C)=O)CC3)nc12 please.
Reply: 50 to 100 nM

Task item: EC50 of Cc1cc(NS(=O)(=O)c2ccccc2Cl)ccc1-c1ccc2nc(N[C@H]3CC[C@H](N)CC3)ncc2c1 on IRE1a (Homo sapiens, UniProt O75460)?
Reply: > 100 nM

Task item: Give EC50 (IRE1a (Homo sapiens, UniProt O75460)) of the following compound: CCc1cc(-c2ccc(NS(=O)(=O)c3ccccc3Cl)c(F)c2)cc2cnc(N[C@H]3CC4C[C@H](N)CC4C3)nc12 (stereo partly drawn)
Reply: 5 to 50 nM

* * *

Target: hERG channel (Homo sapiens)
Construct: expressed in transfected cells
Sequence (Q12809 whole entry): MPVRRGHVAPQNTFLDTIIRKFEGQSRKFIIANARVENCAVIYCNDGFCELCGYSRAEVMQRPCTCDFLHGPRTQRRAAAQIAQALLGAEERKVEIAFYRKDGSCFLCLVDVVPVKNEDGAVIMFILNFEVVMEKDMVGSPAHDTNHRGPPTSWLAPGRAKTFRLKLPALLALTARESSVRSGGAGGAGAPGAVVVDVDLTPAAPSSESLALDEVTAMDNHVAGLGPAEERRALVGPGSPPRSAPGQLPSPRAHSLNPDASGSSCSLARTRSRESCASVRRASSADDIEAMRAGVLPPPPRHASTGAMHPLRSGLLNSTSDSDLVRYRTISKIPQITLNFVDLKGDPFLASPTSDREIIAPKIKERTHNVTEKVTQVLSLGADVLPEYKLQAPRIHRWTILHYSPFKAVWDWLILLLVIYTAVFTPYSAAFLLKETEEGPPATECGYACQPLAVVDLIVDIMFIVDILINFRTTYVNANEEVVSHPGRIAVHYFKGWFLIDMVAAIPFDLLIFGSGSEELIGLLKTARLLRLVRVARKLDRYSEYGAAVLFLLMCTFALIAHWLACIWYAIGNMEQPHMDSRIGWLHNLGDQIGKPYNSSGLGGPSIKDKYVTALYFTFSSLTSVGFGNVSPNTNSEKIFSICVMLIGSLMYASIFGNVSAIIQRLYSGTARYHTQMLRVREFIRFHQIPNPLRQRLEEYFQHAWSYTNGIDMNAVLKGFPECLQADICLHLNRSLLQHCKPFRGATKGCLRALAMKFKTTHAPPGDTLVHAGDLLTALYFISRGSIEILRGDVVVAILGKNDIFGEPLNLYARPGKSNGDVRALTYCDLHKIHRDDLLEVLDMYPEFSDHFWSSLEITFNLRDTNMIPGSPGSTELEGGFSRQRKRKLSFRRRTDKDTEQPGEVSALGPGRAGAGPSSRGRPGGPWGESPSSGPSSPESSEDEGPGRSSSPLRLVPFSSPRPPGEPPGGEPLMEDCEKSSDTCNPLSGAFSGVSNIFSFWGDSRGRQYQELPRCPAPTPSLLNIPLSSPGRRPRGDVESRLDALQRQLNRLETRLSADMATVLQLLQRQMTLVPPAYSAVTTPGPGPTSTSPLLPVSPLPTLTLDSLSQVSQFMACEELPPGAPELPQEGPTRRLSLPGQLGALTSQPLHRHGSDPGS
Assay: hERG potassium ion channel automated planar clamp (QPatch)
Type: cell-based
Conditions: hERG channel expressed in a stable CHO cell line, read-out: hERG channel blockade Mean IC50
pIC50: −log10 of the molar value. Where a name gives a salt, the structure may show the parent alone.
Exercise: for every item that follows, state its recorded pIC50.

Task item: Which pIC50 value belongs to CCc1cc(-c2ccc(NS(=O)(=O)c3ccccc3Cl)c(F)c2)cc2cnc(N[C@H]3CC[C@H](N)CC3)nc12.O=CO ?
Reply: 5.00 to 6.00

Task item: Fill in: pIC50 of CCc1cc(-c2ccc(NS(=O)(=O)c3ccccc3Cl)cc2C)cc2cnc(N[C@H]3CC[C@H](N)CC3)nc12.O=CO is ___
Reply: 4.30 to 5.00

Task item: Consider the compound shown here: CCc1cc(-c2ccc(NS(=O)(=O)c3ccccc3Cl)nc2OC)cc2cnc(N[C@H]3CC[C@H](N)CC3)nc12 [37; HCl ^] What is its recorded pIC50?
Reply: 4.30 to 5.00

Task item: Sample CCc1cc(-c2ccc(NS(=O)(=O)c3ccccc3Cl)c(F)c2)cc2cnc(N[C@H]3CC[C@H](N(C)C)CC3)nc12.O=CO — what was its pIC50?
Reply: 4.30 to 5.00

Task item: Data request, read-out pIC50, for CCc1cc(-c2ccc(NS(=O)(=O)c3ccccc3Cl)nc2C)cc2cnc(N[C@H]3CC[C@H](N)CC3)nc12.O=CO
Reply: 4.30 to 5.00

Data credit: patent US20180346446A1
